Collected C-Kinase inhibitory activity IC50 values appear next to each entry.
molecular target: C-kinase (protein kinase C); experiment: C-Kinase inhibitory activity test; type: biochemical; details: enzyme activity inhibited 50%
readout kind: C-Kinase inhibitory activity IC50 (µg/mL)

compound	units of measure	result value
C[C@]12O[C@H](C[C@]1(O)C(=O)NCCO)n1c3ccccc3c3c4c(c5c6ccccc6n2c5c31)CNC4=O (relative stereo)	µg/mL	0.018
C[C@]12O[C@H](C[C@]1(O)C(N)=O)n1c3ccccc3c3c4c(c5c6ccccc6n2c5c31)CNC4=O (relative stereo)	µg/mL	0.003
C[S+]([O-])CC1(O)CC2OC1(C)n1c3ccccc3c3c4c(c5c6ccccc6n2c5c31)C(=O)NC4 (stereo not drawn)	µg/mL	0.06
C[C@]12O[C@H](C[C@]1(O)CN=[N+]=[N-])n1c3ccccc3c3c4c(c5c6ccccc6n2c5c31)CNC4=O (relative stereo)	µg/mL	0.06
COC(=O)[C@@]1(O)C[C@H]2O[C@]1(C)n1c3ccc(O)cc3c3c4c(c5c6cc(O)ccc6n2c5c31)C(=O)NC4 (relative stereo)	µg/mL	0.005
COC(=O)[C@@]1(O)C[C@H]2O[C@]1(C)n1c3ccc(N)cc3c3c4c(c5c6cc(N)ccc6n2c5c31)C(=O)NC4 (relative stereo)	µg/mL	0.02

----------
system: MCF 7 cells; experiment: MCF 7 cell growth inhibition test; format: cell-based; conditions: Homo sapiens, MCF7; MCF-7 cells, contact for 72 hours; read-out: cell growth inhibitory activity IC50, MCF-7
readout kind: IC50

compound	readout kind	result value
CC1=NCC2(CC3OC2(C)n2c4ccccc4c4c5c(c6c7ccccc7n3c6c42)C(=O)NC5)O1 (stereo not drawn)	IC50	0.4 µg/mL
COC(=O)C1(O)CC2OC1(C)n1c3ccccc3c3c4c(c5c6ccccc6n2c5c31)C(=O)N(CCN(C)C)C4=O (stereo not drawn)	IC50	> 1 µg/mL
COC(=O)[C@@]1(O)C[C@H]2O[C@]1(C)n1c3ccccc3c3c4c(c5c6cccc(N)c6n2c5c31)C(=O)NC4 (relative stereo)	IC50	0.47 µg/mL
C[C@]12O[C@H](C[C@]1(O)C=NNC1=NCCN1)n1c3ccccc3c3c4c(c5c6ccccc6n2c5c31)CNC4=O	IC50	0.5 µg/mL
COC(=O)CNC[C@@]1(O)C[C@H]2O[C@]1(C)n1c3ccccc3c3c4c(c5c6ccccc6n2c5c31)C(=O)NC4 (relative stereo)	IC50	0.8 µg/mL
C[C@]12O[C@H](C[C@]1(O)CNCC(=O)O)n1c3ccccc3c3c4c(c5c6ccccc6n2c5c31)CNC4=O (relative stereo)	IC50	0.74 µg/mL

----------
tested on: PC-10 cells; experiment: PC-10 cell growth inhibition test; assay type: cell-based; settings: Homo sapiens, PC10; PC-10 cells, contact for 72 hours; read-out: cell growth inhibitory activity IC50, PC-10

compound	IC50
COC(=O)[C@@]1(O)C[C@H]2O[C@]1(C)n1c3ccccc3c3c4c(c5c6cc(Br)ccc6n2c5c31)C(=O)NC4 (relative stereo)	0.76 µg/mL
CC12OC(CC13CNC(=S)O3)n1c3ccccc3c3c4c(c5c6ccccc6n2c5c31)CNC4=O (centres unmarked)	0.69 µg/mL
CSCC1(O)CC2OC1(C)n1c3ccccc3c3c4c(c5c6ccccc6n2c5c31)C(=O)NC4 (centres unmarked)	> 1 µg/mL
COC(=O)[C@@]1(O)C[C@H]2O[C@]1(C)n1c3ccccc3c3c4c(c5c6ccccc6n2c5c31)C(=O)N(Cl)C4 (relative stereo)	0.84 µg/mL
CC12OC(CC13CNC(=O)O3)n1c3ccccc3c3c4c(c5c6ccccc6n2c5c31)CNC4=O (centres unmarked)	0.1 µg/mL
C[C@]12O[C@H](C[C@]1(O)C(=O)NO)n1c3ccccc3c3c4c(c5c6ccccc6n2c5c31)CNC4=O (relative stereo)	0.14 µg/mL
C[C@]12O[C@H](C[C@]1(O)CN)n1c3ccccc3c3c4c(c5c6ccccc6n2c5c31)CNC4=O (relative stereo)	0.04 µg/mL
C[S+]([O-])CC1(O)CC2OC1(C)n1c3ccccc3c3c4c(c5c6ccccc6n2c5c31)C(=O)NC4 (centres unmarked)	0.27 µg/mL
